- tested on: Hexokinase-2 (Homo sapiens, UniProt P52789)
- Sequence (P52789 whole entry): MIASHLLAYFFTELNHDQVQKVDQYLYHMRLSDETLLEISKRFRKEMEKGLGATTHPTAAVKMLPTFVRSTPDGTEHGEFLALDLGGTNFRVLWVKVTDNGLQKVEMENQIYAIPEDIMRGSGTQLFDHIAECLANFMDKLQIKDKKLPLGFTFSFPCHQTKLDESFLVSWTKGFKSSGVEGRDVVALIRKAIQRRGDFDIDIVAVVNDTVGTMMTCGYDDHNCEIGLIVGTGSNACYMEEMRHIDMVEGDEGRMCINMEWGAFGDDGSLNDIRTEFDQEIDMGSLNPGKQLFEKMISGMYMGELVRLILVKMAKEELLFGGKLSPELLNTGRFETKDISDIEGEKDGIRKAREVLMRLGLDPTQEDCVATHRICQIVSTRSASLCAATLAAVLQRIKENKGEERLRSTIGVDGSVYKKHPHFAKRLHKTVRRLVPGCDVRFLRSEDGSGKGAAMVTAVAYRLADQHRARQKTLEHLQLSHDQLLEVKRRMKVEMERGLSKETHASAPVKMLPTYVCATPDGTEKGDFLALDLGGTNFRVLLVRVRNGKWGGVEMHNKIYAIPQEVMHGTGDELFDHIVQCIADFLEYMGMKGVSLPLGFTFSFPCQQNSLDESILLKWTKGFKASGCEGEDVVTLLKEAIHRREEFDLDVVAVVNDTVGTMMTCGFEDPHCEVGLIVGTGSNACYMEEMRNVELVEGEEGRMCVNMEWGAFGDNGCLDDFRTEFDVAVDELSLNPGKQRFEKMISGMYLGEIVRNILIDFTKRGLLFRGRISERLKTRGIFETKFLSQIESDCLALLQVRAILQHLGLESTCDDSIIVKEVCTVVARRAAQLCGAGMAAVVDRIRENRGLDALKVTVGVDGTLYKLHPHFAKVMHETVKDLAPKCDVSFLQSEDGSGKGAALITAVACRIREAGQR
- run description: Binding affinity to recombinant human HK2 expressed in Escherichia coli BL21(DE3) assessed as dissociation constant measured after 15 mins by microscale thermophoresis assay
parameter measured: Kd (µM)
Kindly provide the numeric value in µM only, without the unit symbol.

Can you share its Kd? I mean this molecule: "C=C1CC[C@H]2[C@@](C)(CCC(=O)N[C@@]2(C)COC(=O)CCCC[C@@H]2CCSS2)[C@@H]1/C=C/C1=CCOC1=O"
5.12

* * *

- tested on: Hexokinase-2 (Homo sapiens, UniProt P52789)
- Sequence (P52789 whole entry): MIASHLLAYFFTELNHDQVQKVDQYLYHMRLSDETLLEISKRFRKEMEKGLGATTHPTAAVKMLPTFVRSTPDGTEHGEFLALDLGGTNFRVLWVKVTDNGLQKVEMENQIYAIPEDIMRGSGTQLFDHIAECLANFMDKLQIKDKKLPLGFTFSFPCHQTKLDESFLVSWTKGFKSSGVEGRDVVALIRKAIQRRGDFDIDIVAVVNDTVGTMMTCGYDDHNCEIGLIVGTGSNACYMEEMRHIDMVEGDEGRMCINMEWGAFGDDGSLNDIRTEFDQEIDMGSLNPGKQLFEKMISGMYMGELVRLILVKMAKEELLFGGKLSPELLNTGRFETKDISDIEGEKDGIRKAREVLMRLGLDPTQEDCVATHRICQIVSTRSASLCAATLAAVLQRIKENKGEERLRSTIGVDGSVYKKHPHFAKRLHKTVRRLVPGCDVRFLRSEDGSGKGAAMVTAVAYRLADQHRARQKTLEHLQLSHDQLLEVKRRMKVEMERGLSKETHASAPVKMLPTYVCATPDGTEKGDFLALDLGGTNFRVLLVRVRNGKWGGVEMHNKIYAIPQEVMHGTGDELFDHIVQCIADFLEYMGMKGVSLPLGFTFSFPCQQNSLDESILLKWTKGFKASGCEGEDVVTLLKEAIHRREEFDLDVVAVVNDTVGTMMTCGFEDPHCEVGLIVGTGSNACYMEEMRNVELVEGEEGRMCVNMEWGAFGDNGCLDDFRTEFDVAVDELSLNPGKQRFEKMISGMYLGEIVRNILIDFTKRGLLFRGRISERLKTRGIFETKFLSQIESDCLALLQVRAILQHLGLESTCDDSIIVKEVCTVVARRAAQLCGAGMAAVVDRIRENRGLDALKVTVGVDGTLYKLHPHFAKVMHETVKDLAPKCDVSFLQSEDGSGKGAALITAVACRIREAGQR
- run description: Inhibition of recombinant human HK2 expressed in Escherichia coli BL21(DE3) using glucose as substrate preincubated for 10 mins followed by substrate addition in presence of ATP by G6PDH/NADP coupled assay
parameter measured: IC50

Can you share its IC50? I mean this compound: "C=C1CC[C@H]2[C@@](C)(CCC(=O)N[C@@]2(C)COC(=O)[C@H](N)Cc2ccccc2)[C@@H]1/C=C/C1=CCOC1=O"
4.8 µM

Can you share its IC50? I mean this compound: "C=C1CC[C@H]2[C@@](C)(CC[C@@H](OC(=O)CNC)[C@@]2(C)NC=O)[C@@H]1/C=C/C1=CCOC1=O"
> 50 µM

# evaluate next
Can you share its IC50? I mean this compound: "C=C1CC[C@H]2[C@@](C)(CCC(=O)N[C@@]2(C)COC(=O)c2cccnc2)[C@@H]1/C=C/C1=CCOC1=O"
> 50 µM
